Kindly supply the reported pIC50 values for the records listed here.
# Tgt: human HPK1 (MAP4K1) (Homo sapiens (Human), UniProt Q92918)
# Sequence (Q92918 17-274): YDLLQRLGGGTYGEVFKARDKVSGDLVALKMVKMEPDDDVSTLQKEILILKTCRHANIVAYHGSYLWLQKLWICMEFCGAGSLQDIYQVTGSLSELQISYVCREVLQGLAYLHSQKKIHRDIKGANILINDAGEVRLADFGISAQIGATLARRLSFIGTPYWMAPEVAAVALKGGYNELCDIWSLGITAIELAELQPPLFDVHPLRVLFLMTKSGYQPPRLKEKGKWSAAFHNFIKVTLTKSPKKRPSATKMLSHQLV
# Test Details: HPK1 IC50 Assay (TR-FRET biochemical kinase assay, STK S1 peptide substrate)
# Condition Label: recombinant human HPK1 kinase domain 0.15 nM, 10 μM ATP, 1 μM STK S1 peptide; geometric mean
Note: pIC50 values are expressed as the negative base-10 logarithm of concentration in M.

Record lookup: for human HPK1 (MAP4K1) (Homo sapiens (Human), UniProt Q92918), what pIC50 belongs to CO[C@H](C)C(=O)N1CCC2(CC1)C(=O)N([C@H]1C[C@@H](N3CCCCC3)C1)c1cc(-c3cc4ncn(C(C)C)c4c(Nc4ccncc4F)n3)ccc12 [Example 153] ?
9.52

Try the compound CC(C)n1cnc2cc(-c3ccc4c(c3)N([C@H]3C[C@@H](N5CCCC6(CC6)C5)C3)C(=O)C43CCN(C(=O)CO)CC3)nc(Nc3ccncc3F)c21 [Example 121]
9.70

Now this one: CC(C)C(=O)N1CCC2(CC1)C(=O)N([C@H]1C[C@@H](N3CCCCC3)C1)c1cc(-c3cc4ncn(C(C)C)c4c(Nc4ccncc4F)n3)ccc12 [Example 171]
9.30

====

Kindly state IC50 for each of the entries shown.
# Tgt: human HPK1 (MAP4K1) (Homo sapiens (Human), UniProt Q92918)
# Test Details: HPK1 IC50 Assay (TR-FRET biochemical kinase assay, STK S1 peptide substrate)
# Condition Label: recombinant human HPK1 kinase domain 0.15 nM, 10 μM ATP, 1 μM STK S1 peptide; geometric mean
Write the answer as a number in pM, unit excluded.

Notebook: pull reported IC50 for human HPK1 (MAP4K1) (Homo sapiens (Human), UniProt Q92918), entry "CC(C)[C@H](O)C(=O)N1CCC2(CC1)C(=O)N([C@H]1C[C@@H](N3CCC(C)(C)C3)C1)c1cc(-c3cc4ncn(C(C)C)c4c(Nc4ccncc4F)n3)ccc12"
200

Also "CC(C)n1cnc2cc(-c3ccc4c(c3)N([C@H]3C[C@@H](N5C[C@H]6CC[C@H]6C5)C3)C(=O)C43CCN(C(=O)[C@@H](C)O)CC3)nc(Nc3ccncc3F)c21" , if possible.
70

Continue with "CC(=O)N1CCC2(CC1)C(=O)N([C@H]1C[C@@H](N3CCCCC3)C1)c1cc(-c3cc4ncn(C(C)C)c4c(Nc4cc5ccncc5cc4F)n3)ccc12"
400

Next molecule up: "CC(C)n1cnc2cc(-c3ccc4c(c3)N([C@H]3C[C@@H](N5CC6CCC(C6)C5)C3)C(=O)C43CCN(C(=O)C4COC4)CC3)nc(Nc3ccncc3F)c21"
70

"CC(C)n1cnc2cc(-c3ccc4c(c3)N([C@H]3C[C@@H](N5CCC(C)(C)C5)C3)C(=O)C43CCN(C(=O)C(C)(C)CO)CC3)nc(Nc3ccc(F)nc3F)c21" ?
80

Can you handle "CC(=O)N1CCC2(CC1)C(=O)N([C@H]1C[C@@H](N3CCC4(CC4)C3)C1)c1cc(-c3cc4ncn(C(C)C)c4c(Nc4ccncc4F)n3)ccc12" next?
800

Another molecule to look at: "CC[C@@H](O)C(=O)N1CCC2(CC1)C(=O)N([C@H]1C[C@@H](N3CCCCC3)C1)c1cc(-c3cc4ncn(C(C)C)c4c(Nc4ccncc4F)n3)ccc12"
400

How about this molecule: "CO[C@@H](C)C(=O)N1CCC2(CC1)C(=O)N([C@H]1C[C@@H](N3CCCCC3)C1)c1cc(-c3cc4ncn(C(C)C)c4c(Nc4ccncc4F)n3)ccc12"
500

Again, but for "CC(C)n1cnc2cc(-c3ccc4c(c3)N([C@H]3C[C@@H](N5CCC(C)(C)C5)C3)C(=O)C43CCN(C(=O)c4cnnn4C)CC3)nc(Nc3ccncc3F)c21"
400

Here is the next molecule: "CC(C)[C@@H](O)C(=O)N1CCC2(CC1)C(=O)N([C@H]1C[C@@H](N3CCC(C)(C)C3)C1)c1cc(-c3cc4ncn(C(C)C)c4c(Nc4ccncc4F)n3)ccc12"
200

Try this molecule next: "CNC(=O)c1ccc(F)c(Nc2nc(-c3ccc4c(c3)N([C@H]3C[C@@H](N5CCCCC5)C3)C(=O)C4(C)C)cc3ncn(C(C)C)c23)n1"
1400

Input "CC(C)n1cnc2cc(-c3ccc4c(c3)N([C@H]3C[C@@H](N5CC6CCC(C6)C5)C3)C(=O)C43CCN(C(=O)[C@@H](C)O)CC3)nc(Nc3ccncc3F)c21"
100

Here is the next molecule: "Cc1cnc(Nc2nc(-c3ccc4c(c3)N([C@H]3C[C@@H](N5CCCCC5)C3)C(=O)C4(C)C)cc3ncn(C(C)C)c23)cc1C(=O)NC1(CF)CC1"
6000

And for "CC(C)n1cnc2cc(-c3ccc4c(c3)N([C@H]3C[C@@H](N5CCCCC5)C3)C(=O)C43CCN(C(=O)C(C)(C)CO)CC3)nc(Nc3ccnc(F)c3F)c21" ?
200

Same again, this time with "CC(C)n1cnc2cc(-c3ccc4c(c3)N([C@H]3C[C@@H](N5C[C@H]6CC[C@H]6C5)C3)C(=O)C43CCN(C(=O)[C@@H]4CCCO4)CC3)nc(Nc3ccncc3F)c21"
80

Likewise for "CC(C)n1cnc2cc(-c3ccc4c(c3)N([C@H]3C[C@@H](N5CCCCC5)C3)C(=O)C43CCN(C(=O)C(C)(C)CO)CC3)nc(Nc3ccncc3F)c21" ?
300

Consider next the molecule "CC(=O)N1CCC2(CC1)C(=O)N([C@H]1C[C@@H](N3CCCCCC3)C1)c1cc(-c3cc4ncn(C(C)C)c4c(Nc4ccncc4F)n3)ccc12" in the same way.
100

Try "CC(=O)N1CCC2(CC1)C(=O)N([C@H]1C[C@@H](N3C[C@H]4CC[C@H]4C3)C1)c1cc(-c3cc4ncn(C(C)C)c4c(Nc4ccncc4F)n3)ccc12" next.
100

For "Cc1cc(Nc2nc(-c3ccc4c(c3)N([C@H]3C[C@@H](N5CCCCC5)C3)C(=O)C43CCN(C(=O)C(C)(C)CO)CC3)cc3ncn(C(C)C)c23)c(F)cn1" then?
800

Please give the result for "CC(C)n1cnc2cc(-c3ccc4c(c3)N([C@H]3C[C@@H](N5CCCCC5)C3)C(=O)C43CCN(C(=O)C4(C#N)CC4)CC3)nc(Nc3ccncc3F)c21" too.
300

Also check "CC(C)n1cnc2cc(-c3ccc4c(c3)N([C@H]3C[C@@H](N5CCC(C)(C)C5)C3)C(=O)C43CCN(C(=O)c4ccon4)CC3)nc(Nc3ccncc3F)c21"
300

====

# Tgt: human HPK1 (MAP4K1) (Homo sapiens (Human))
# Test Details: HPK1 IC50 Assay (TR-FRET biochemical kinase assay, STK S1 peptide substrate)
# Condition Label: recombinant human HPK1 kinase domain 0.15 nM, 10 μM ATP, 1 μM STK S1 peptide; geometric mean of multiple experiments
Hi there, I'd appreciate the recorded IC50 for every entry that follows.
Give the value in nM but do not write nM after it.

Please look up its IC50: CC(C)n1cnc2cc(-c3ccc4c(c3)N([C@H]3C[C@@H](N5CC6CC6C5)C3)C(=O)C4(C)C)nc(Nc3ccncc3F)c21 (stereo partly drawn)
0.8

Same for "CC(C)n1cnc2cc(-c3ccc4c(c3)N([C@H]3C[C@@H](N5CCC(C)(C)C5)C3)C(=O)C43CCN(C(=O)C4CCOCC4)CC3)nc(Nc3ccncc3F)c21"
0.2

Another compound to check: "CC(C)n1cnc2cc(-c3ccc4c(c3)N([C@H]3C[C@@H](N5CCC(C)(C)C5)C3)C(=O)C43CCN(C(=O)[C@@H]4CCOC4)CC3)nc(Nc3ccncc3F)c21"
0.3

Another compound: "CC(C)n1cnc2cc(-c3ccc4c(c3)N([C@H]3C[C@@H](N5CC6CCC(C6)C5)C3)C(=O)C4(C)C)nc(Nc3ccncc3F)c21"
0.05

Now try CC(C)n1cnc2cc(-c3ccc4c(c3)N([C@H]3C[C@@H](N5CCC(C)(C)C5)C3)C(=O)C43CCN(C(=O)C4(C)CCOC4)CC3)nc(Nc3ccncc3F)c21 (stereo partly drawn) .
0.3

Input "CC(C)n1cnc2cc(-c3ccc4c(c3)N([C@H]3C[C@@H](N5CC(C)(C)C[C@@H]5CO)C3)C(=O)C43CCN(C4COC4)CC3)nc(Nc3ccncc3F)c21"
0.6

====

# Tgt: human HPK1 (MAP4K1) (Homo sapiens (Human), UniProt Q92918)
# Test Details: HPK1 IC50 Assay (TR-FRET biochemical kinase assay, STK S1 peptide substrate)
# Condition Label: recombinant human HPK1 kinase domain 0.15 nM, 10 μM ATP, 1 μM STK S1 peptide; geometric mean
Value Kind: pIC50
Lab note: report pIC50 as minus log10 of the concentration in molar units, number only.

Which pIC50 value belongs to "CC(=O)N1CCC2(CC1)C(=O)N([C@H]1C[C@@H](N3CCCC4(CCC4)C3)C1)c1cc(-c3cc4ncn(C(C)C)c4c(Nc4ccncc4F)n3)ccc12" ?
9.52

Next up: "CC(=O)N1CCC2(CC1)C(=O)N([C@H]1C[C@@H](N3CC4CCC(C4)C3)C1)c1cc(-c3cc4ncn(C(C)C)c4c(Nc4ccncc4F)n3)ccc12"
10.00

Now give it for "CC(=O)N1CCC2(CC1)C(=O)N([C@H]1C[C@@H](N3C4CCCC3CC4)C1)c1cc(-c3cc4ncn(C(C)C)c4c(Nc4ccncc4F)n3)ccc12" too.
9.52

Next compound up: "CC(C)n1cnc2cc(-c3ccc4c(c3)N([C@H]3C[C@@H](N5CCCC5)C3)C(=O)C4(C)C)nc(Nc3ccncc3F)c21"
8.49

Try this compound too: "CC(C)n1cnc2cc(-c3ccc4c(c3)N([C@H]3C[C@@H](N5CCCCC5)C3)C(=O)C43CCN(C(=O)C4(F)CC4)CC3)nc(Nc3ccncc3F)c21"
9.30

Now consider CC(=O)N1CCC2(CC1)C(=O)N(C1CC(N3CCCC4(CC4)C3)C1)c1cc(-c3cc4ncn(C(C)C)c4c(Nc4ccncc4F)n3)ccc12 (stereo not drawn) .
9.52
